Target: Growth hormone secretagogue receptor type 1 (Homo sapiens)
Sequence (Q92847 whole entry): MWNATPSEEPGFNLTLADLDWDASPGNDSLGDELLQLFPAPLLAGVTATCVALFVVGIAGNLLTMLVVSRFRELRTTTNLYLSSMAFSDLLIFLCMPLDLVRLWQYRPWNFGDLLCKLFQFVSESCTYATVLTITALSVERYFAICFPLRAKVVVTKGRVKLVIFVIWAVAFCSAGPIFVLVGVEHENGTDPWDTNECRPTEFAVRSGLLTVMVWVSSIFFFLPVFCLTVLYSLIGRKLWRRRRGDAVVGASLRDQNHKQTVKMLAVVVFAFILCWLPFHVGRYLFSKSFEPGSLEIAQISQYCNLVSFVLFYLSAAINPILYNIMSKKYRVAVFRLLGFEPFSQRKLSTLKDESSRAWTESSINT
Assay: Inhibition of human GHS receptor by FLIPR
Type: functional
pIC50: −log10 of the molar value.
Quantity Kind: pIC50

In the examples that follow, each entry is paired with its recorded pIC50.
Compound	pIC50
CS(=O)(=O)c1ccc(CNc2ccc(-c3c(N)nc(N)nc3C3CC4CCC3C4)cc2)cc1 (centres undefined)	6.86
CCCCCCCc1nc(N)nc(N)c1-c1ccc(NCc2ccc(S(C)(=O)=O)cc2)cc1	7.42
CC(C)CCOCc1nc(N)nc(N)c1-c1ccc(NCc2ccc(S(C)(=O)=O)cc2)cc1	8.17
CCc1nc(N)nc(NCCO)c1-c1ccc(NCc2ccc(S(C)(=O)=O)cc2)cc1	5.51
CCc1nc(N)nc(N)c1-c1ccc(NCc2ccc(S(C)(=O)=O)cc2)cc1	7.43

A. CCCCc1nc(N)nc(N)c1-c1ccc(NCc2ccc(S(C)(=O)=O)cc2)cc1
B. CN(C)Cc1nc(N)nc(N)c1-c1ccc(NCc2ccc(S(C)(=O)=O)cc2)cc1
Q: Which value of pIC50 is numerically greater: that of A or that of B ? Please respond with the label that marks your chosen entry.
Result: A
(A: 7.49, B: 5.59)

1. CCCCCc1nc(N)nc(N)c1-c1ccc(NCc2ccc(S(C)(=O)=O)cc2)cc1
2. CCc1nc(N)nc(NCC(C)C)c1-c1ccc(NCc2ccc(S(C)(=O)=O)cc2)cc1
Q: Kindly identify the item with the lower pIC50 figure among these two: 1 and 2 Selection: enter the item's label.
Result: 2
(2: 5.61, 1: 6.68)
